inhibition at 1 µM values for the compounds below.
Assay system: ETB Receptor (Sus scrofa, UniProt P35463)
Construct: Porcine cerebellum was homogenized in 25 volumes (w/v) of 10 mM Hepes (pH 7.4); from tissue; host or cells: porcine cerebellum membranes
Sequence (P35463 27-443): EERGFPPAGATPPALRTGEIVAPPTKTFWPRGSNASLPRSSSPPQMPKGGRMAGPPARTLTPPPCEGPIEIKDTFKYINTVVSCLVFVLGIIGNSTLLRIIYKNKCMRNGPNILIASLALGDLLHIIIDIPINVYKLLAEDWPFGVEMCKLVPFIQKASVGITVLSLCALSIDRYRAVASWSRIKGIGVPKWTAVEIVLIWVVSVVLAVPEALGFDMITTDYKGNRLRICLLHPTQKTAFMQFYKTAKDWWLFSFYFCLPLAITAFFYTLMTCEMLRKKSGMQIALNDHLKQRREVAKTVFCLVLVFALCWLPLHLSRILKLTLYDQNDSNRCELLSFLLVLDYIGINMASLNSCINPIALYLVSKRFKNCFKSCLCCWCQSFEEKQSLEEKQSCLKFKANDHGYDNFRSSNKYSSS
Assay remarks: ETB receptor binding assay: [125I]ET-3 binding to membranes
Condition summary: test compound 1 µM; displacement of 0.1 nM [125I]ET-3; Porcine cerebellum membranes; 4 hours at 25 °C
Note: unit % is implicit; provide only the numeric part.

CCOc1ccc([C@H]2[C@H](C(=O)O)[C@@H](c3ccc4c(c3)OCO4)CN2CC(=O)Nc2c(CC)cccc2CC)cc1 [Example 23]; 99.1

Prompt: Could you tell me which inhibition at 1 µM is on file for `CCc1cc(C)cc(CC)c1NC(=O)CN1C[C@H](c2ccc3c(c2)OCO3)[C@@H](C(=O)O)[C@@H]1c1ccc(OC)cc1` ?
Completion: 95.3

Prompt: Report inhibition at 1 µM for CCc1cccc(CC)c1NC(=O)CN1C[C@H](c2ccc3c(c2)OCO3)[C@@H](C(=O)O)[C@@H]1c1ccc(OC)cc1 (racemic) [Example 4] please.
Completion: 94

Prompt: Give the measured inhibition at 1 µM of CCOc1ccc([C@H]2[C@H](C(=O)O)[C@@H](c3ccc4c(c3)OCO4)CN2CC(=O)Nc2c(CC)cccc2CC)cc1F (racemic) .
Completion: 94.5

Prompt: What does the record list as inhibition at 1 µM for CCCOc1ccc([C@H]2[C@H](C(=O)O)[C@@H](c3ccc4c(c3)OCO4)CN2CC(=O)Nc2c(C)cc(C)cc2C)cc1 (racemic) ?
Completion: 82.1

Prompt: Give its inhibition at 1 µM value. Item: CCCOc1ccc([C@H]2[C@H](C(=O)O)[C@@H](c3ccc4c(c3)OCO4)CN2CC(=O)Nc2c(CC)cccc2CC)cc1 (racemic)
Completion: 96.5
